# Test system: 786-0 renal
# experiment.description: NCI-60 one-dose screen, 48 h (100 = growth as untreated, 0 = no growth, -100 = all killed)
# particulars: 10 µM unless noted
Compounds without any hit were thinned out: in the full panel of roughly 83,000, 20% have a hit. Active and inactive are the calls of the source. Rule for the calls: active = growth percent below 10; inactive = the rest.
recorded.metric: growth

Recorded growth, per entry:
compound	measured.value
O=C(CC(CC(=O)c1ccccc1)c1ccccn1)c1ccccc1	113% (inactive)
Nc1ccc2ccccc2c1-c1c(N)ccc2ccccc12	49.3% (inactive)
CCCCc1ccc2nc(NC(=O)OC)[nH]c2c1	16.5% (inactive)
CCCCCCCCCCCCSC1=C(Cl)C(=O)C(OC)=C(OC)C1=O	65.6% (inactive)
CN(C)CCOC(=O)Nc1ccc(Cc2ccc(NC(=O)OCCN(C)C)cc2)cc1	60.1% [100 µM] (inactive)
CCOC(=O)/C(O)=C(\C=N\C(=S)Nc1ccc(Cl)c(Cl)c1)C(=O)OCC	115% (inactive)
CC(C)(N)CO[C@H]1C[C@H]2CC[C@@]1(C)C2(C)C	97.6% (inactive)
COc1cc(C(=O)O)c(O)c(C(C)(C)C)c1	101% (inactive)

Parameters: items (list). Returns: growth for each item.
1. CC1(C)C2CCC1(C)C1(C2)OCCS1 (configuration not stated)
2. Nc1ccc2c(c1)Cc1cc(N)c(N)cc1-2
3. Clc1ncnc2nc[nH]c12
4. Cc1ccccc1NC(=O)Oc1ccc(Cl)cc1C(=O)c1ccccc1
5. CCC1CCC(C)NC1 (configuration not stated)
6. CCCCCCCCCCC(=O)CCCCCCCCCC

Result block:
["97.4% (inactive)", "107% (inactive)", "101% (inactive)", "102% (inactive)", "102% (inactive)", "99.1% (inactive)"]
